Numbers sourced from patent US20120184562A1.

For each entry below, report its log10(IC50) value.
Molecular target: Human DYRK1A (Homo sapiens, UniProt Q13627)
Construct: purchased Invitrogen PV3997
Experiment: DYRK1A Kinase TR-FRET (IMAP-Tb) Assay
Format: biochemical
Conditions: TR-FRET (IMAP-Tb); ATP 70 μM; 37° C., 60 minutes; average of multiple runs; read-out: Enzyme IC50 (μM) DYRK1A
Text: DYRK1A Kinase TR-FRET (IMAP-Tb) Assay The kinase TR-FRET (IMAP-Tb) assay uses a fluorescence labeled substrate peptide in the kinase reaction. Upon phosphorylation by the kinase, phosphopeptide is produced, which will be detected by the binding solution provided in IMAP TR-FRET binding kit. […] Due to the long lifetime of terbium (Tb) fluorescence the detection can be run in time resolved mode, which virtually eliminates fluorescence interference from assay components or compounds. […]
Counter-ions that a name gives are not always drawn.
Values below are the log10 of the recorded IC50, with µM as the unit.

Worked cases, answers included:
| COMPOUND | log10(IC50) |
| --- | --- |
| COc1cc2[nH]c(=O)c(C(=O)Nc3cc(C(=O)NC(CN)c4ccccc4)ccc3C)cc2cn1 (stereo not shown) [Example 55, hydrochloride] | -1.30 |
| COc1ccc2cc(C(=O)Nc3cc(C(=O)NCc4cccc(Cl)c4)ccc3Cl)c(=O)[nH]c2n1 | -1.72 |
| COc1cc2[nH]c(=O)c(C(=O)Nc3cc(C(=O)NCc4cccs4)ccc3C)cc2cn1 | -0.23 |
| COc1cc2[nH]c(=O)c(C(=O)Nc3cc(C(=O)NC(CCN)c4ccsc4)ccc3C)cc2cn1 (stereo not shown) | -2.34 |
| COc1cc2[nH]c(=O)c(C(=O)Nc3cc(C(=O)NC(CN)c4ccccc4)ccc3Cl)cc2cn1 (stereo not shown) [Example 45, hydrochloride] | -1.94 |

Hi, could you look up log10(IC50) for each item in my list?
1. COC(=O)c1ccc(Cl)c(NC(=O)c2cc3cnc(OC)cc3[nH]c2=O)c1
2. COC(=O)c1ccc(C)c(NC(=O)c2cc3ccc(N4CCN(C)CC4)nc3[nH]c2=O)c1
3. COc1cc2[nH]c(=O)c(C(=O)Nc3cc(C(=O)NC(CCN)c4ccccc4)ccc3C)cc2cn1 (stereo not shown) [Example 61, hydrochloride]
4. COc1cc2[nH]c(=O)c(C(=O)Nc3cc(C(=O)NCc4ccsc4)ccc3C)cc2cn1
5. COc1cc2[nH]c(=O)c(C(=O)Nc3cc(C(=O)NC(CCN)c4cccc(Cl)c4)ccc3C)cc2cn1 (stereo not shown) [Example 65, hydrochloride]
6. COC(=O)c1ccc(Cl)c(NC(=O)c2cc3ccc(N4CCN(C)CC4)nc3[nH]c2=O)c1

RESULT:
1. -0.87
2. -0.04
3. -1.47
4. -0.58
5. -1.01
6. -0.35
